Record form. Attribute: INH. Fill in for each entry.
target or test system: UniProt:Q9Y6L6
Sequence (Q9Y6L6 whole entry): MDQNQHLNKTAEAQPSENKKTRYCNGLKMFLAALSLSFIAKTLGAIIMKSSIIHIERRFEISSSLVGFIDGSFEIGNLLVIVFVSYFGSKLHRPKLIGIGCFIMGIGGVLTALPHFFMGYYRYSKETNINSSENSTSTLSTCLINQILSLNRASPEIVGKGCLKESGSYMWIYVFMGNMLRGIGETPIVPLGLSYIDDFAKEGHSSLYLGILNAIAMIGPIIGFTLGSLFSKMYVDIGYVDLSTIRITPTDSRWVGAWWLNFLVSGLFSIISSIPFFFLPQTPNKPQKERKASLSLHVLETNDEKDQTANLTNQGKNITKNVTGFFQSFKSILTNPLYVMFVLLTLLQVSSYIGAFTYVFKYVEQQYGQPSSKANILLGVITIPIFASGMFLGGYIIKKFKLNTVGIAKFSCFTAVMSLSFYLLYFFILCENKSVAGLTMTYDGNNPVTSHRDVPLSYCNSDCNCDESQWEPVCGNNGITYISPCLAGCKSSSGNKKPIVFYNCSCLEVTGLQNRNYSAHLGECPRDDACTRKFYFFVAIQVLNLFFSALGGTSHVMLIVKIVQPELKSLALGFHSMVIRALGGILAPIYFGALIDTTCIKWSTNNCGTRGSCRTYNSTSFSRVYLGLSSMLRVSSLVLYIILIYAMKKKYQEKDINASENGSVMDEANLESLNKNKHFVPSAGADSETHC
protocol notes: Inhibition of human liver OATP1B1 expressed in HEK293 Flp-In cells assessed as reduction in E17-betaG uptake at 20 uM by scintillation counting
assay conditions: hek293, 20 µM
State just the number; it will be interpreted in %.

The reported INH value, UniProt:Q9Y6L6, for C[C@H](CCC(=O)NCC(=O)O)[C@H]1CC[C@H]2[C@@H]3CC[C@@H]4C[C@H](O)CC[C@]4(C)[C@H]3C[C@H](O)[C@]12C [GLYCODEOXYCHOLATE] reads 85

Item COc1ccc2c3c([nH]c2c1)[C@H](CC(C)C)N1C(=O)[C@H](CCC(=O)OC(C)(C)C)NC(=O)[C@@H]1C3 ; assay system UniProt:Q9Y6L6; INH reported as 59.3

Known value: UniProt:Q9Y6L6 INH of the compound CNCC[C@@H](Oc1ccccc1C)c1ccccc1 [ATOMOXETINE] equals -7.5

Record for NC12CC3CC(CC(C3)C1)C2 [AMANTADINE] under target or system UniProt:Q9Y6L6: INH reported as 26.4

Record COCc1c(C(C)C)nc(C(C)C)c(/C=C/[C@@H](O)C[C@@H](O)CC(=O)O)c1-c1ccc(F)cc1 [CERIVASTATIN] ; system UniProt:Q9Y6L6; INH = 73.6

O=C(O)[C@H]1O[C@@H](Oc2cc3oc(-c4ccccc4)cc(=O)c3c(O)c2O)[C@H](O)[C@@H](O)[C@@H]1O [BAICALIN] tested on UniProt:Q9Y6L6 gave INH: 27.6
